assay: High-throughput colorimetric calcium depletion assay (crystallization half-time); details: 37° C., crystallization volume 600 μL, shaking; logistic fit
Readout Label: CHT (hr), crystallization half-time (h)
Output spec: scalar in h, unitless text.

Which CHT (hr), crystallization half-time is listed for ADAAADDDAAADAAADDD (Synthesized Calcium oxalate monohydrate inhibitory polypeptide) [D6] ? 5.041

Which CHT (hr), crystallization half-time is listed for DDDAAAAADDDAAAAADD (Synthesized Calcium oxalate monohydrate inhibitory polypeptide) [D1] ? 6.482

Which CHT (hr), crystallization half-time is listed for ADAADAAADAADDAADAA (Synthesized Calcium oxalate monohydrate inhibitory polypeptide) [D10] ? 6.054

Which CHT (hr), crystallization half-time is listed for ADAAADDAAADAAAADAA (Synthesized Calcium oxalate monohydrate inhibitory polypeptide) [D8] ? 4.792

Which CHT (hr), crystallization half-time is listed for ADAAADDAAADAAADDAA (Synthesized Calcium oxalate monohydrate inhibitory polypeptide) [D9] ? 7.277

Which CHT (hr), crystallization half-time is listed for ADADADADADADADADAD (Synthesized Calcium oxalate monohydrate inhibitory polypeptide) [D13] ? 8.114

Which CHT (hr), crystallization half-time is listed for ADDAADAADAADDAADDA (Synthesized Calcium oxalate monohydrate inhibitory polypeptide) [D12] ? 7.135

Which CHT (hr), crystallization half-time is listed for ADAADDAAAAAADAADAA (Synthesized Calcium oxalate monohydrate inhibitory polypeptide) [D11] ? 5.767

Which CHT (hr), crystallization half-time is listed for ADAADAADAADAADAADA (Synthesized Calcium oxalate monohydrate inhibitory polypeptide) [D4] ? 4.432

Which CHT (hr), crystallization half-time is listed for AADAAAAADDAAAADAAA (Synthesized Calcium oxalate monohydrate inhibitory polypeptide) [D2] ? 3.533

Which CHT (hr), crystallization half-time is listed for ADAADDAADAADDAAAAA (Synthesized Calcium oxalate monohydrate inhibitory polypeptide) [D5] ? 4.641

Which CHT (hr), crystallization half-time is listed for ADAAADDAAAAAAAADAA (Synthesized Calcium oxalate monohydrate inhibitory polypeptide) [D7] ? 5.771

Which CHT (hr), crystallization half-time is listed for ADAAADAADAADDAADAA (Synthesized Calcium oxalate monohydrate inhibitory polypeptide) [D3] ? 4.142

Data origin, for the record: patent US10246489B2
